System: K4 kissing-loop RNA reporter;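 also: bound reporter read as fluorescence of individual clusters on recovered sequencing chips by microscopy, with normalized cluster intensities fitted with a binding model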
assay_summary: apparent KD of K4 kissing-loop reporter; higher = weaker reporter binding
test_context: Eterna round: R107; input ligand: none
Output Y for apparent KD of K4 kissing-loop reporter not less than 200 nM; output N otherwise.

[
  {
    "sequence_string": "GAGAACUCUUACGAUACCAGCCGGAGUGAUGUUCCGUGCUUGGACGUAGUAACCCGCACCGGCCCUUGGCAGCGUGGAUCCUAUG [Biorar]",
    "class_label": "N"
  },
  {
    "sequence_string": "CGCAAUAUUACGGAGUGAUGUUUCGUAGUCCGAGGACCGGUACGGCCGCCACUCGCUGGCGUUGGCCCAUAGACCGACGGAAUCG [theeternabot_sameState_KL_Trp_A_39]",
    "class_label": "Y"
  },
  {
    "sequence_string": "AAGCCAUACUCGGCCGCCACUUACUUCGUUGCAGUGAUGUUGCACACGAAUCCGUCAUAGCAAAUAAGGACCGGGAGAUAUACCG [theeternabot_exclusion_KL_Trp_B_19]",
    "class_label": "N"
  },
  {
    "sequence_string": "UACAUAUUAUUUAACAUAAAUUUUACAGAAGGAGCGUGAUCAUUCACAGGUAGGUCGCUGAACUAGUGAUGUUAGUUUUAUUUUU [JR_Nu_ExcArginiA_Sub025]",
    "class_label": "N"
  },
  {
    "sequence_string": "UUAGAUCAAAGAUCAGUCUUAUUGAGAGAACGAGGACCGGUACGGCCGCCACUCGAGUGAUGUUCGAGAACUCUCUUGACAAAUU [AK1 EXC Tryptophan A]",
    "class_label": "N"
  },
  {
    "sequence_string": "AACUGUCAAGGACAACAUUACUGAGGUGAUACCAGGUUUGAGAGGAUCCCUUGGCAGCACCAACUUGCAGUGAUGUUGCAAGUAA [BrourdMod 15 - Jieux - Exclusion - Theophylline A]",
    "class_label": "Y"
  },
  {
    "sequence_string": "CACCAUGAAUUCUCUAGGAGUGAUGUUUUUCGAGGACCGGUACGGCCGCCACUCGGACGAGGACCGUGGGAGCGGCGAAAAGACU [ghgmullin]",
    "class_label": "Y"
  },
  {
    "sequence_string": "GGAGGGAUCUCGGCCGCCACUCGUGGGAAAUGGGCCUCAGGGAUAUAGUGAUGUUAUGUAAAGAAGAGGACCGGGAGAAGGAAGG [ExTryptoB.Dg]",
    "class_label": "Y"
  },
  {
    "sequence_string": "UAAGAAUAGCAUGCAGUGAUGUUGCAUGUCCGAGGACCGGUACGGCCGCCACUCGAGUCCUCGAACAUGCACCGAGGAAUAACAA [#19 K4 Tryptophan A Same State]",
    "class_label": "N"
  },
  {
    "sequence_string": "UGUCAUUGGUCGGCCGCCACUUCAUAAAAGAGUGAUGUUCUAAAGACGGAUCGAAAGAUCUGUCGAAGGACCGGGACCGAUGACU [TrypBS 19 #SwitchBubble #StaticStem]",
    "class_label": "Y"
  },
  {
    "sequence_string": "UGUACCGAGUCAGGAUAUGGCGUCGAAAGACGAAUGCUAGUGAUGUUAGGGAUCUGCGAAAGCAGUUCAGAAGGGACUUGGUACU [FmnBS 26 G36+U67]",
    "class_label": "Y"
  },
  {
    "sequence_string": "UGACUGGAUGGAAGGAGCGCUAAACUCCUAGUGAUGUUAGGGACAUGAGGCACAGCCUUGAAGCAGGUAGGUCGCCAUCUAGUCU [FiskerMod 28 - Jieux - Same State - Arginine B]",
    "class_label": "N"
  },
  {
    "sequence_string": "UGUGUUGUUUUGAUGUUUGGUGUUGCAUGGCAGGAUAUCGUAGAGGCGAGAAGGGCUUGUGAGCGGUAUGAGUGAUGUUUGUAGG [bbgbmullin]",
    "class_label": "Y"
  },
  {
    "sequence_string": "AGUACAAUUGCGGCCGCCACUCAACGCAGAUCAAAGAUCUGCAUUCACUCAGUGAUGUUGAGUGAGAGGACCGGGCAUUUGUACA [Omei KL Tryp B SS B v2]",
    "class_label": "Y"
  },
  {
    "sequence_string": "UACAAACGUAGUGAUGUUACGUACUCUGAUACCAGACAACUCUAAGUCCCUUGGCAGCAGUCACUUAGCUUAUUAUUUUCUCAAA [JR_Nu_ExcTheophyA_Sub026]",
    "class_label": "N"
  },
  {
    "sequence_string": "CGGCGGAGUGAUGUUCCACCUACUGCGGAUACCAGCUUUGCCAGAGGCCCUUGGCAGCCGCACGGCUCAGUGAUGUUGGGUUGCG [Same State Theophylline A G12]",
    "class_label": "Y"
  },
  {
    "sequence_string": "GCACUCCAUCGGACGUAAGUGAUGUUUACCCGAGGACCGGUACGGCCGCCACUCGACCGUGCAUAACCAAAUCAAAUAGCUUCCG [theeternabot_exclusion_KL_Trp_A_31]",
    "class_label": "N"
  },
  {
    "sequence_string": "UGAUAGGACAGAAGGAGCGGUAGUGAUGUUACCAAAAGAAUAAGGUGUCAAAAGACACCCUGCCAGGUAGGUCGCUGUCCUAUCU",
    "class_label": "N"
  },
  {
    "sequence_string": "UCGCAUUAACCGGAUACCAGCUUAGUGGGAUCUUCAAUCCGACAGAAAGUGAUGUUUUCUAGCCCUUGGCAGCCGAGAUUAUCAC [theeternabot_sameState_KL_Theo_B_50]",
    "class_label": "Y"
  },
  {
    "sequence_string": "UUUUAAAUAUCUGAUACCAGAGCGAAUAUAUGUAGUGAUGUUAUAUACAAAAUAAAUAAGCUCCCUUGGCAGCAGUAUUAAUUUU [Astros-ExyTheB#?#ED14.66]",
    "class_label": "Y"
  }
]
